Please go through the items and note down their MIC.
# System: Staphylococcus aureus
# EXPERIMENT NOTES: Antimicrobial activity against Staphylococcus aureus after 24 hrs by microdilution technique in absence of NaCl
# Assay type: functional
Where a SMILES comes first, the peptide text is derived from it. Bridges are numbered along the chain shown (N, C = ends).

- COMPOUND: "CC(C)C[C@H](NC(=O)[C@@H]1CSSC[C@H](NC(=O)[C@H](C)NC(=O)[C@H](C)NC(=O)[C@@H](N)CCCCN)C(=O)N[C@@H](C)C(=O)N[C@@H](C)C(=O)N[C@@H](CCCCN)C(=O)N1)C(=O)N[C@@H](Cc1c[nH]c2ccccc12)C(=O)N[C@@H](CCCNC(=N)N)C(N)=O (H-KAACAAKCLWR-NH2; disulfide 4-8)"
  OBS VALUE: "50 µg/mL"
- COMPOUND: "CC(C)C[C@H](NC(=O)[C@@H]1CSSC[C@H](NC(=O)[C@H](C)NC(=O)[C@H](C)NC(=O)[C@@H](N)CC(=O)O)C(=O)N[C@@H](C)C(=O)N[C@@H](C)C(=O)N[C@@H](CCCCN)C(=O)N1)C(=O)N[C@@H](Cc1c[nH]c2ccccc12)C(=O)N[C@@H](CCCNC(=N)N)C(N)=O (H-DAACAAKCLWR-NH2; disulfide 4-8)"
  OBS VALUE: "> 200 µg/mL"
- COMPOUND: "CC(C)C[C@H](NC(=O)[C@@H]1CSSC[C@H](NC(=O)[C@H](C)NC(=O)[C@H](C)NC(=O)[C@@H](N)CCCCN)C(=O)N[C@@H](C)C(=O)N[C@@H](C)C(=O)N[C@@H](Cc2cnc[nH]2)C(=O)N1)C(=O)N[C@@H](Cc1c[nH]c2ccccc12)C(=O)N[C@@H](CCCNC(=N)N)C(N)=O (H-KAACAAHCLWR-NH2; disulfide 4-8)"
  OBS VALUE: "100 µg/mL"
- COMPOUND: "CC(C)C[C@H](NC(=O)[C@H](CS)NC(=O)[C@H](CCCCN)NC(=O)[C@H](C)NC(=O)[C@H](C)NC(=O)[C@H](CS)NC(=O)[C@H](C)NC(=O)[C@H](C)NC(=O)[C@@H](N)CC(=O)O)C(=O)N[C@@H](Cc1c[nH]c2ccccc12)C(=O)N[C@@H](CCCNC(=N)N)C(N)=O (H-DAACAAKCLWR-NH2)"
  OBS VALUE: "200 µg/mL"
- COMPOUND: "CC(C)C[C@H](NC(=O)[C@H](CS)NC(=O)[C@H](CCCCN)NC(=O)[C@H](C)NC(=O)[C@H](C)NC(=O)[C@H](CS)NC(=O)[C@H](C)NC(=O)[C@H](C)NC(=O)[C@@H](N)CCCCN)C(=O)N[C@@H](Cc1c[nH]c2ccccc12)C(=O)N[C@@H](CCCNC(=N)N)C(N)=O (H-KAACAAKCLWR-NH2)"
  OBS VALUE: "50 µg/mL"

Below are some compounds; for each one, tell me its MIC.
1. CC(C)C[C@H](NC(=O)[C@@H]1CSSC[C@H](NC(=O)[C@H](C)NC(=O)[C@H](C)NC(=O)[C@@H](N)CC(=O)O)C(=O)N[C@@H](C)C(=O)N[C@@H](C)C(=O)N[C@@H](Cc2cnc[nH]2)C(=O)N1)C(=O)N[C@@H](Cc1c[nH]c2ccccc12)C(=O)N[C@@H](CCCNC(=N)N)C(N)=O (H-DAACAAHCLWR-NH2; disulfide 4-8)
2. CC(C)C[C@H](NC(=O)[C@H](CS)NC(=O)[C@H](Cc1cnc[nH]1)NC(=O)[C@H](C)NC(=O)[C@H](C)NC(=O)[C@H](CS)NC(=O)[C@H](C)NC(=O)[C@H](C)NC(=O)[C@@H](N)CCCCN)C(=O)N[C@@H](Cc1c[nH]c2ccccc12)C(=O)N[C@@H](CCCNC(=N)N)C(N)=O (H-KAACAAHCLWR-NH2)
3. CC(C)C[C@H](NC(=O)[C@H](CS)NC(=O)[C@H](Cc1cnc[nH]1)NC(=O)[C@H](C)NC(=O)[C@H](C)NC(=O)[C@H](CS)NC(=O)[C@H](C)NC(=O)[C@H](C)NC(=O)[C@@H](N)CC(=O)O)C(=O)N[C@@H](Cc1c[nH]c2ccccc12)C(=O)N[C@@H](CCCNC(=N)N)C(N)=O (H-DAACAAHCLWR-NH2)

1: > 200 µg/mL; 2: 50 µg/mL; 3: > 200 µg/mL

* * *

Please go through the items and note down their MIC.
# System: Pseudomonas aeruginosa
# EXPERIMENT NOTES: Antimicrobial activity against Pseudomonas aeruginosa after 24 hrs by microdilution technique in absence of NaCl
# Assay type: functional
Where a SMILES comes first, the peptide text is derived from it. Bridges are numbered along the chain shown (N, C = ends).

Observe how each entry below is paired with its result.
- COMPOUND: "CC(C)C[C@H](NC(=O)[C@H](CS)NC(=O)[C@H](Cc1cnc[nH]1)NC(=O)[C@H](C)NC(=O)[C@H](C)NC(=O)[C@H](CS)NC(=O)[C@H](C)NC(=O)[C@H](C)NC(=O)[C@@H](N)CCCCN)C(=O)N[C@@H](Cc1c[nH]c2ccccc12)C(=O)N[C@@H](CCCNC(=N)N)C(N)=O (H-KAACAAHCLWR-NH2)"
  MIC: "100 µg/mL"
- COMPOUND: "CC(C)C[C@H](NC(=O)[C@@H]1CSSC[C@H](NC(=O)[C@H](C)NC(=O)[C@H](C)NC(=O)[C@@H](N)CCCCN)C(=O)N[C@@H](C)C(=O)N[C@@H](C)C(=O)N[C@@H](Cc2cnc[nH]2)C(=O)N1)C(=O)N[C@@H](Cc1c[nH]c2ccccc12)C(=O)N[C@@H](CCCNC(=N)N)C(N)=O (H-KAACAAHCLWR-NH2; disulfide 4-8)"
  MIC: "> 200 µg/mL"
- COMPOUND: "CC(C)C[C@H](NC(=O)[C@H](CS)NC(=O)[C@H](Cc1cnc[nH]1)NC(=O)[C@H](C)NC(=O)[C@H](C)NC(=O)[C@H](CS)NC(=O)[C@H](C)NC(=O)[C@H](C)NC(=O)[C@@H](N)CC(=O)O)C(=O)N[C@@H](Cc1c[nH]c2ccccc12)C(=O)N[C@@H](CCCNC(=N)N)C(N)=O (H-DAACAAHCLWR-NH2)"
  MIC: "> 200 µg/mL"

Below are some compounds; for each one, tell me its MIC.
1. CC(C)C[C@H](NC(=O)[C@@H]1CSSC[C@H](NC(=O)[C@H](C)NC(=O)[C@H](C)NC(=O)[C@@H](N)CC(=O)O)C(=O)N[C@@H](C)C(=O)N[C@@H](C)C(=O)N[C@@H](CCCCN)C(=O)N1)C(=O)N[C@@H](Cc1c[nH]c2ccccc12)C(=O)N[C@@H](CCCNC(=N)N)C(N)=O (H-DAACAAKCLWR-NH2; disulfide 4-8)
2. CC(C)C[C@H](NC(=O)[C@@H]1CSSC[C@H](NC(=O)[C@H](C)NC(=O)[C@H](C)NC(=O)[C@@H](N)CCCCN)C(=O)N[C@@H](C)C(=O)N[C@@H](C)C(=O)N[C@@H](CCCCN)C(=O)N1)C(=O)N[C@@H](Cc1c[nH]c2ccccc12)C(=O)N[C@@H](CCCNC(=N)N)C(N)=O (H-KAACAAKCLWR-NH2; disulfide 4-8)

> 200 µg/mL
> 200 µg/mL

* * *

Please go through the items and note down their HC50.
# System: Erythrocyte
# EXPERIMENT NOTES: Hemolytic activity in human red blood cells after 1 hrs
# Format: functional
Where a SMILES comes first, the peptide text is derived from it.

- COMPOUND: "CC(C)C[C@H](NC(=O)[C@H](CS)NC(=O)[C@H](CCCCN)NC(=O)[C@H](C)NC(=O)[C@H](C)NC(=O)[C@H](CS)NC(=O)[C@H](C)NC(=O)[C@H](C)NC(=O)[C@@H](N)CC(=O)O)C(=O)N[C@@H](Cc1c[nH]c2ccccc12)C(=O)N[C@@H](CCCNC(=N)N)C(N)=O (H-DAACAAKCLWR-NH2)"
  PROPERTY MEASURED: "HC50"
  OBS VALUE: ">200 µg/mL"

Okay, now this compound:
Reported HC50 for CC(C)C[C@H](NC(=O)[C@H](CS)NC(=O)[C@H](CCCCN)NC(=O)[C@H](C)NC(=O)[C@H](C)NC(=O)[C@H](CS)NC(=O)[C@H](C)NC(=O)[C@H](C)NC(=O)[C@@H](N)CCCCN)C(=O)N[C@@H](Cc1c[nH]c2ccccc12)C(=O)N[C@@H](CCCNC(=N)N)C(N)=O (H-KAACAAKCLWR-NH2) was >200 µg/mL

* * *

# Tested on: Pseudomonas aeruginosa
# EXPERIMENT NOTES: Antimicrobial activity against Pseudomonas aeruginosa after 24 hrs by microdilution technique in absence of NaCl
# Type: functional
Where a SMILES comes first, the peptide text is derived from it. Bridges are numbered along the chain shown (N, C = ends).
Please go through the items and note down their MIC.

Observe how each entry below is paired with its result.
- COMPOUND: "CC(C)C[C@H](NC(=O)[C@@H]1CSSC[C@H](NC(=O)[C@H](C)NC(=O)[C@H](C)NC(=O)[C@@H](N)CC(=O)O)C(=O)N[C@@H](C)C(=O)N[C@@H](C)C(=O)N[C@@H](Cc2cnc[nH]2)C(=O)N1)C(=O)N[C@@H](Cc1c[nH]c2ccccc12)C(=O)N[C@@H](CCCNC(=N)N)C(N)=O (H-DAACAAHCLWR-NH2; disulfide 4-8)"
  TARGET ENTITY: "Pseudomonas aeruginosa"
  MIC: "> 200 µg/mL"
- COMPOUND: "CC(C)C[C@H](NC(=O)[C@H](CS)NC(=O)[C@H](CCCCN)NC(=O)[C@H](C)NC(=O)[C@H](C)NC(=O)[C@H](CS)NC(=O)[C@H](C)NC(=O)[C@H](C)NC(=O)[C@@H](N)CC(=O)O)C(=O)N[C@@H](Cc1c[nH]c2ccccc12)C(=O)N[C@@H](CCCNC(=N)N)C(N)=O (H-DAACAAKCLWR-NH2)"
  TARGET ENTITY: "Pseudomonas aeruginosa"
  MIC: "> 200 µg/mL"

Okay, now this compound:
Reported MIC for CC(C)C[C@H](NC(=O)[C@H](CS)NC(=O)[C@H](CCCCN)NC(=O)[C@H](C)NC(=O)[C@H](C)NC(=O)[C@H](CS)NC(=O)[C@H](C)NC(=O)[C@H](C)NC(=O)[C@@H](N)CCCCN)C(=O)N[C@@H](Cc1c[nH]c2ccccc12)C(=O)N[C@@H](CCCNC(=N)N)C(N)=O (H-KAACAAKCLWR-NH2) was 100 µg/mL
